Overview of reported AC50 across a group of molecules:
Molecular target: Muscarinic acetylcholine receptor M2 (Homo sapiens, UniProt P08172); also: assay procedure not described here
Sequence (P08172 whole entry): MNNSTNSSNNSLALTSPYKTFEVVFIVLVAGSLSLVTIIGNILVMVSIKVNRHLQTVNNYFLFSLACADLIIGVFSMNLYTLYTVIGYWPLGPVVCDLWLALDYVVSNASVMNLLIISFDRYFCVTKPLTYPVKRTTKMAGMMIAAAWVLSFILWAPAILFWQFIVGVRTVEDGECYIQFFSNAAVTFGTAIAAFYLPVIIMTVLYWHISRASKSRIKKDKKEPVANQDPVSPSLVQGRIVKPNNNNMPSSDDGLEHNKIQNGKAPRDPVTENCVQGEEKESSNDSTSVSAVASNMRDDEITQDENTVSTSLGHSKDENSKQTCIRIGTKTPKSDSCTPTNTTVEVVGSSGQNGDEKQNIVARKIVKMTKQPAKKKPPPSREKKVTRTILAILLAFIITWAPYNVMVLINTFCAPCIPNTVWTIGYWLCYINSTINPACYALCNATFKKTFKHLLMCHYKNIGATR
Type: functional, cell-based
endpoint_name: AC50

{"molecule": "CCC(=O)O[C@]1(C(=O)SCF)[C@H](C)C[C@H]2[C@@H]3C[C@H](F)C4=CC(=O)C=C[C@]4(C)[C@@]3(F)[C@@H](O)C[C@@]21C [FLUTICASONE PROPIONATE]", "experimental_value": "> 30 µM"}
{"molecule": "CN1CCC(=C2c3ccccc3CCc3cccnc32)CC1", "experimental_value": "> 10 µM"}
{"molecule": "C[C@@H](Oc1cc(-c2cnn(C3CCNCC3)c2)cnc1N)c1c(Cl)ccc(F)c1Cl", "experimental_value": "> 10 µM"}
{"molecule": "COc1cc2nc(N3CCN(C(=O)C4CCCO4)CC3)nc(N)c2cc1OC (configuration not stated)", "experimental_value": "> 10 µM"}
{"molecule": "COc1ccc2nc3cc(Cl)ccc3c(Nc3cc(CN4CCCC4)c(O)c(CN4CCCC4)c3)c2n1", "experimental_value": "> 30 µM"}
{"molecule": "CC(C)COCC(CN(Cc1ccccc1)c1ccccc1)N1CCCC1 (configuration not stated)", "experimental_value": "> 30 µM"}
{"molecule": "CCOC(=O)c1cncn1[C@H](C)c1ccccc1 [ETOMIDATE]", "experimental_value": "> 10 µM"}
{"molecule": "CC(=O)N[C@@H](CS)C(=O)O", "experimental_value": "> 30 µM"}
{"molecule": "CC(C)Cc1ccc(C(C)C(=O)O)cc1 (configuration not stated)", "experimental_value": "> 10 µM"}
{"molecule": "Nc1ncn([C@H]2C[C@H](O)[C@@H](CO)O2)c(=O)n1", "experimental_value": "> 30 µM"}
{"molecule": "[H]/N=C(/N)N/C(=N/[H])NCCc1ccccc1", "experimental_value": "> 10 µM"}
{"molecule": "CC(=O)O[C@H](CC(=O)[O-])C[N+](C)(C)C", "experimental_value": "> 30 µM"}
{"molecule": "Nc1ccc(S(=O)(=O)Nc2nccs2)cc1", "experimental_value": "> 10 µM"}
{"molecule": "Clc1ccc(C(Cn2ccnc2)OCc2ccsc2Cl)c(Cl)c1 (configuration not stated)", "experimental_value": "> 30 µM"}
{"molecule": "Cc1cc2cc3c(C)cc(=O)oc3c(C)c2o1", "experimental_value": "> 10 µM"}
{"molecule": "CN1C(C(=O)Nc2ccccn2)=C(O)c2ccccc2S1(=O)=O", "experimental_value": "> 10 µM"}
{"molecule": "Cc1cc(C(C)(C)C)cc(C)c1CC1=NCCN1", "experimental_value": "> 30 µM"}
{"molecule": "CC1=C(C)C(=O)C(C(CCCCCC(=O)O)c2ccccc2)=C(C)C1=O (configuration not stated)", "experimental_value": "> 30 µM"}
{"molecule": "COc1cc(N)c(Cl)cc1C(=O)NC1CCN(Cc2ccccc2)CC1 [CLEBOPRIDE]", "experimental_value": "> 30 µM"}
{"molecule": "CCC(C)C(CC)C(N)=O (configuration not stated) [VALNOCTAMIDE]", "experimental_value": "> 30 µM"}
{"molecule": "CC(=O)OCC(=O)[C@@]1(O)[C@H](C)C[C@H]2[C@@H]3CCC4=CC(=O)C=C[C@]4(C)[C@@]3(F)[C@@H](O)C[C@@]21C [DEXAMETHASONE ACETATE]", "experimental_value": "> 10 µM"}
{"molecule": "CCCN[C@H]1CCc2nc(N)sc2C1 [PRAMIPEXOLE]", "experimental_value": "> 10 µM"}
